# SYSTEM: D(4) dopamine receptor (Homo sapiens, UniProt P21917)
# Sequence (P21917 whole entry): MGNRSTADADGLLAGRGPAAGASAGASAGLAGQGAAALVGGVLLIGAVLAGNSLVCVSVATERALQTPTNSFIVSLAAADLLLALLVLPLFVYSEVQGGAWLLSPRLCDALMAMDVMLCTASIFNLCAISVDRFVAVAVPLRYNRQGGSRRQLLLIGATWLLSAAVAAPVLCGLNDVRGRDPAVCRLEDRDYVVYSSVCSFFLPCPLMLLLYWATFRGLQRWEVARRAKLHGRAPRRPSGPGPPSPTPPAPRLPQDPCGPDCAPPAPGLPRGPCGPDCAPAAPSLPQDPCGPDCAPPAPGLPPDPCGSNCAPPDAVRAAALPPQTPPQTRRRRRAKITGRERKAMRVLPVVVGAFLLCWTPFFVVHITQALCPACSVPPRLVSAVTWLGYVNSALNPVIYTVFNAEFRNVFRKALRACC
# METHOD: In vitro ability to displace [3H]spiperone from the cloned human dopamine D4 receptor expressed in CHO cells
# Format: cell-based
RECORDED_METRIC: Ki
The reply should consist of the numeric value with the unit placed after it.

Incoming: Requested read-out Ki, target or system D(4) dopamine receptor (Homo sapiens, UniProt P21917), entry c1ccc(C2=N[C@@H](CN3CCN(c4ccccc4)CC3)CCN2)cc1
Outgoing: 1.5 nM

----------
# SYSTEM: D(2) dopamine receptor (Homo sapiens, UniProt P14416)
# Sequence (P14416 whole entry): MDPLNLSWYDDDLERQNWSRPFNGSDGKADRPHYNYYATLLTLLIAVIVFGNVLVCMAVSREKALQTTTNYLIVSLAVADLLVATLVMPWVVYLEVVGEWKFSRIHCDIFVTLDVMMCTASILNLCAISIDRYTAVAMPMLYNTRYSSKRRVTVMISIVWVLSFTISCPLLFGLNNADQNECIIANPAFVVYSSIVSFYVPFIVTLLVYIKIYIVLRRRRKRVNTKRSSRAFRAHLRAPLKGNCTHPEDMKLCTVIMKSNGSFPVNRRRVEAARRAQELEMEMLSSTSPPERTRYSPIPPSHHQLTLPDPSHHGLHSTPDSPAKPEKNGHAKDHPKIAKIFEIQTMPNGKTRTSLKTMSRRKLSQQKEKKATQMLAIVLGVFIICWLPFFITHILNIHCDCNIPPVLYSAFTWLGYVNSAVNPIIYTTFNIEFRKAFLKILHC
# METHOD: In vitro binding affinity to displace [3H]spiperone from the cloned human dopamine receptor D2 short in CHO cells
# Format: cell-based
RECORDED_METRIC: Ki (µM)
Unit µM implied. Number only.

Incoming: Requested read-out: Ki. Entry: c1ccc(C2=NCC[C@@H](CN3CCN(c4ccccc4)CC3)N2)cc1
Outgoing: 30
